# tested_on: noradrenaline reuptake site (Rattus norvegicus)
# Construct: Adult male CD rats were killed by cervical dislocation, brains removed and frontal cortices (120-150 mg) immediately dissected
# Sequence (Q63380 1-617): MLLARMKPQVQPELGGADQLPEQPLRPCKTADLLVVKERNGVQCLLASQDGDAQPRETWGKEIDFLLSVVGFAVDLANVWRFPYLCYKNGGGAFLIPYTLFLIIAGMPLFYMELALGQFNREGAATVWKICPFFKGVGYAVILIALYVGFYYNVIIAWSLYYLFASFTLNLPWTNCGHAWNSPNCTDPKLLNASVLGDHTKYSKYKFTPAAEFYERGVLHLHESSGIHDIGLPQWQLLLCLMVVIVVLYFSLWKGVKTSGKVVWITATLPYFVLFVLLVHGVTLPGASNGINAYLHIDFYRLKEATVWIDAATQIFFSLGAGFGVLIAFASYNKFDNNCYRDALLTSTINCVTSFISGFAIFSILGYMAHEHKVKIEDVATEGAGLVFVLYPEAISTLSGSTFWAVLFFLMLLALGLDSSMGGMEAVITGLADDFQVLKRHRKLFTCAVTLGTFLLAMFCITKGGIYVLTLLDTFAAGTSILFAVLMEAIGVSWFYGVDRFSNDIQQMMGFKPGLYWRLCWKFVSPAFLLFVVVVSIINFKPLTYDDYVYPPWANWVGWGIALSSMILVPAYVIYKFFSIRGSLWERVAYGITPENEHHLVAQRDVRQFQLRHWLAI
# assay_name: Noradrenaline reuptake site binding assay in rat brain ([3H]nisoxetine)
Counter-ions that a name gives are not always drawn.
experimental_readout: pKi
The value called pKi is obtained by taking minus log10 of the concentration in mol/L.

CC(C)C[C@@H](N(C)C)C1(c2ccc(Cl)cc2)CCC1 [(+)-Sibutramine, hydrochloride] = 5.52
CC(C)CC(N(C)C)C1(c2ccc(Cl)cc2)CCC1 (racemic) = 7.07

For the compound CC(C)C[C@H](N(C)C)C1(c2ccc(Cl)cc2)CCC1.Cl [(−)-Sibutramine, hydrochloride] , what pKi is on record?
4.62

###

Measured pKi of individual entries
# tested_on: dopamine reuptake site (Rattus norvegicus, UniProt P23977)
# Sequence (P23977 whole entry): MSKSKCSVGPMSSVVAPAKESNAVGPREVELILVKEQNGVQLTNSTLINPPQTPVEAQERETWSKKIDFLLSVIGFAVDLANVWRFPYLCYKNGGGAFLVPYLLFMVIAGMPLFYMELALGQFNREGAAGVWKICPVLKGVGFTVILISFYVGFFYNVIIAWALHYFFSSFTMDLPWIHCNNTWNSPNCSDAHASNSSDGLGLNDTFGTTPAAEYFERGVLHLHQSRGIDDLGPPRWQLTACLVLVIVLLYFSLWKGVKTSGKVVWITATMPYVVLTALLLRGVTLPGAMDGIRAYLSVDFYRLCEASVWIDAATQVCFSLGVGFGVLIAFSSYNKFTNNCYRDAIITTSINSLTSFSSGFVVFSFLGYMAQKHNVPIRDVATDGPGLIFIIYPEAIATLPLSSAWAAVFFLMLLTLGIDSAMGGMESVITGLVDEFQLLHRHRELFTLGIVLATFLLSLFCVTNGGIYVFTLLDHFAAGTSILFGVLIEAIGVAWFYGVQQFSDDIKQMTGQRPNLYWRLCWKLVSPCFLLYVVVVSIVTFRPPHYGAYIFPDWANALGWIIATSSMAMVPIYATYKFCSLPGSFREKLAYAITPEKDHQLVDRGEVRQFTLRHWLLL
# assay_name: Dopamine reuptake site binding assay in rat brain ([3H]GBR 12935)
# Description: The IC50 was calculated using the following formula: [formula] Tissue was homogenised in ice-cold 0.32 M sucrose (1:80 w/v) using a motor driven teflon pestle (12 strokes, 800 rpm) and centrifuged at 1000 g for 12 minutes. […] All centrifugations were carried out at 4° C.
Where a name gives a salt, the structure may show the parent alone.
Scale explanation: pKi corresponds to minus log10 of a concentration expressed in moles per litre.

Reference set, count: 2
CC(C)C[C@H](N(C)C)C1(c2ccc(Cl)cc2)CCC1.Cl [(−)-Sibutramine, hydrochloride] = 5.35
CC(C)CC(N(C)C)C1(c2ccc(Cl)cc2)CCC1 (racemic) = 5.51

Please turn your attention to the following entry.
Entry CC(C)C[C@@H](N(C)C)C1(c2ccc(Cl)cc2)CCC1 [(+)-Sibutramine, hydrochloride] : reported pKi = ?
5.78

###

# tested_on: dopamine reuptake site (Homo sapiens, UniProt Q01959)
# Construct: Frozen putamen was homogenised in ice-cold 0.25 M sucrose (1:40 w/v)
# Sequence (Q01959 whole entry): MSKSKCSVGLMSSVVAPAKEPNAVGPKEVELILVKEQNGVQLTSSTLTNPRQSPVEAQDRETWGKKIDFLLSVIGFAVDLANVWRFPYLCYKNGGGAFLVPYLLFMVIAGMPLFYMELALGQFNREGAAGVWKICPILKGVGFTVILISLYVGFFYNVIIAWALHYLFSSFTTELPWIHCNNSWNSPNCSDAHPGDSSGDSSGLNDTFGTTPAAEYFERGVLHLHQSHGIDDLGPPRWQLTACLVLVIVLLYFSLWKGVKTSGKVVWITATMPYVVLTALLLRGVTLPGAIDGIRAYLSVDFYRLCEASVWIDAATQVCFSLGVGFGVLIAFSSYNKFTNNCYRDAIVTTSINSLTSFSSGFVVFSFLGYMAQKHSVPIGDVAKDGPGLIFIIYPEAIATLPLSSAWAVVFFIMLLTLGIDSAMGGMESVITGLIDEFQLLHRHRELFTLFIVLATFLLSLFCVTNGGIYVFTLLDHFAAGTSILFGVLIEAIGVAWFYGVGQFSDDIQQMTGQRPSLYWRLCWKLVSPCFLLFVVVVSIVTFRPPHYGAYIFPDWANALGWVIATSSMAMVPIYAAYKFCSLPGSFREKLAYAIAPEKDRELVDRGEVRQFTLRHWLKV
# assay_name: Dopamine reuptake site binding assay in human brain ([3H]GBR 12935)
Structures can show the parent of a compound that is named as a salt.
experimental_readout: Ki
Record the result as a number with its unit.

CC(C)C[C@@H](N(C)C)C1(c2ccc(Cl)cc2)CCC1 [(+)-Sibutramine, hydrochloride] = 897 nM
CC(C)CC(N(C)C)C1(c2ccc(Cl)cc2)CCC1 (racemic) = 943 nM

Consider the additional compound presented here.
Which Ki value is on record for CC(C)C[C@H](N(C)C)C1(c2ccc(Cl)cc2)CCC1.Cl [(−)-Sibutramine, hydrochloride] ?
2890 nM
